target: human CD3 ed (human, UniProt P07766 23-126; P04234 22-105, limits assumed); test: SPR Biacore T200, IgG captured on protein A, 25 C;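 further: antigens diluted in ACES running buffer at pH 7.4 were flowed over antibodies held on a CM3 chip bearing amine-coupled protein A, with buffer alone serving as blank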
Sequence (P07766 23-126 limits assumed, chain 1 of 2): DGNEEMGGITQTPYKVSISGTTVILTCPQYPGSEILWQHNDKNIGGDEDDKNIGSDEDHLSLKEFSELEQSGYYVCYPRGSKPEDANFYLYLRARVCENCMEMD
Sequence (P04234 22-105 limits assumed, chain 2 of 2): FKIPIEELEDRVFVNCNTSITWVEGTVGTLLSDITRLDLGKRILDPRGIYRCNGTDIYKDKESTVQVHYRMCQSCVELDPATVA
pKd for assorted binders
Quick note: pKd values are minus log10 of concentrations in mol/L.

{"columns": ["binder", "pKd"],
 "data": [
  ["dBBDu189/L126 (antibody, V domains shown, IgG format; constant regions not specified) VH: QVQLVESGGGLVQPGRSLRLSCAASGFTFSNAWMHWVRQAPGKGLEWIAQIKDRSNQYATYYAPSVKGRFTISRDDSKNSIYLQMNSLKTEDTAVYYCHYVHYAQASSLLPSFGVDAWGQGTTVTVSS VL: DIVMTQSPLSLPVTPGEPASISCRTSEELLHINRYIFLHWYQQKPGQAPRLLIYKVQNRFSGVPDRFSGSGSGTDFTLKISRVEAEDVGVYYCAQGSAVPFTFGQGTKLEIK", 5.59],
  ["dBBDu189/L116 (antibody, V domains shown, IgG format; constant regions not specified) VH: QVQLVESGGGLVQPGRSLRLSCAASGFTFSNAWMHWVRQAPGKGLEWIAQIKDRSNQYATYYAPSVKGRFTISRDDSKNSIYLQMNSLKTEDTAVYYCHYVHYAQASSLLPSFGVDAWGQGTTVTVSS VL: DIVMTQSPLSLPVTPGEPASISCSSSQELVHANRQIYLHWYQQKPGQAPRLLIYKVANRFPGVPDRFSGSGSGTDFTLKISRVEAEDVGVYYCAQGTQVPFTFGQGTKLEIK", 6.68],
  ["dBBDu189/L112 (antibody, V domains shown, IgG format; constant regions not specified) VH: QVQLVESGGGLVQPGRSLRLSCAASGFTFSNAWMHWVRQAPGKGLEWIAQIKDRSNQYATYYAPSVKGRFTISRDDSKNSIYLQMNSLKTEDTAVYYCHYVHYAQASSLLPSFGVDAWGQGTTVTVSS VL: DIVMTQSPLSLPVTPGEPASISCTSDQELVHMNRHTYLHWYQQKPGQAPRLLIYKVYNRFPGVPDRFSGSGSGTDFTLKISRVEAEDVGVYYCAQGTSVPFTFGQGTKLEIK", 6.48]
]}

Using known records, supply pKd for dBBDu186/L108 (antibody, V domains shown, IgG format; constant regions not specified) VH: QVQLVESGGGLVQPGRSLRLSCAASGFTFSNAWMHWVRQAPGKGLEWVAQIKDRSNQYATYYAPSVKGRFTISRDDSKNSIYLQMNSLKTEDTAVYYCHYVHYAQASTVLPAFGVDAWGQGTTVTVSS VL: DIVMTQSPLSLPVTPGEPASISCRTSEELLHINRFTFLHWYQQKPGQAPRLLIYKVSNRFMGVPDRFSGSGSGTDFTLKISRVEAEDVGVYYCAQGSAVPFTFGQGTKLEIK 5.52

Using known records, supply pKd for dBBDu183/L063 (antibody, V domains shown, IgG format; constant regions not specified) VH: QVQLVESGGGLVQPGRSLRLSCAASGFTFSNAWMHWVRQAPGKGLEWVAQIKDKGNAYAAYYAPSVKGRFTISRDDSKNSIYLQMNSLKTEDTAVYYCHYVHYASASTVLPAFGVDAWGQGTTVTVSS VL: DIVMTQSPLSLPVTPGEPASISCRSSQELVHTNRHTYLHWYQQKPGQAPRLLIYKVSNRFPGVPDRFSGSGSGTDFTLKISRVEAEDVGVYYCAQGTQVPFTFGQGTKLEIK 6.56
